- System: Respiratory syncytial virus
- methodNotes: Antiviral activity against Respiratory syncytial virus infected African green monkey Vero 76 cells assessed as reduction in plaque number treated after viral infection measured after 5 days by plaque reduction assay
- Assay type: functional, organism-based
- conditionInfo: human respiratory syncytial virus, 120 h
pEC50: −log10 of the molar value.
quantityName: pEC50

Record excerpt, results attached:
{"compoundSmiles": "Cc1ccc(-c2nnc3nnc4c5ccccc5[nH]c4n23)cc1", "pEC50": "< 4.00"}
{"compoundSmiles": "Oc1cccc(-c2nnc3nnc4c5ccccc5[nH]c4n23)c1", "pEC50": "< 4.00"}

QUERY: Supply measured pEC50 of COc1ccc(-c2nnc3nnc4c5ccccc5[nH]c4n23)cc1OC in your reply.
RESULT: < 4.00

* * *

- methodNotes: Cytotoxicity against Chlorocebus aethiops (African green monkey) Vero 76 cells assessed as inhibition of cell viability after 48 to 120 hr by MTT assay
- Format: cell-based
- conditionInfo: chlorocebus sabaeus
// CC50 lookup, one value per entry

Record excerpt, results attached:
{"compoundSmiles": "COc1ccccc1-c1nnc2nnc3c4ccccc4[nH]c3n12", "testResult": "20 µM"}
{"compoundSmiles": "COc1ccc(-c2nnc3nnc4c5ccccc5[nH]c4n23)cc1", "testResult": "> 100 µM"}
{"compoundSmiles": "COc1ccc(OC)c(-c2nnc3nnc4c5ccccc5[nH]c4n23)c1", "testResult": "15 µM"}
{"compoundSmiles": "O=[N+]([O-])c1cccc(-c2nnc3nnc4c5ccccc5[nH]c4n23)c1", "testResult": "> 100 µM"}

QUERY: Supply measured CC50 of COc1cccc(-c2nnc3nnc4c5ccccc5[nH]c4n23)c1 in your reply.
RESULT: 65 µM

QUERY: Supply measured CC50 of Clc1cccc(-c2nnc3nnc4c5ccccc5[nH]c4n23)c1 in your reply.
RESULT: 60 µM

QUERY: Supply measured CC50 of Oc1cccc(-c2nnc3nnc4c5ccccc5[nH]c4n23)c1 in your reply.
RESULT: > 100 µM

QUERY: Supply measured CC50 of c1ccc(Oc2cccc(-c3nnc4nnc5c6ccccc6[nH]c5n34)c2)cc1 in your reply.
RESULT: 80 µM

QUERY: Supply measured CC50 of CSc1ccc(-c2nnc3nnc4c5ccccc5[nH]c4n23)cc1 in your reply.
RESULT: 90 µM

QUERY: Supply measured CC50 of c1ccc2c(-c3nnc4nnc5c6ccccc6[nH]c5n34)c3ccccc3cc2c1 in your reply.
RESULT: ≥ 100 µM

QUERY: Supply measured CC50 of c1ccc(-c2nnc3nnc4c5ccccc5[nH]c4n23)cc1 in your reply.
RESULT: > 100 µM

QUERY: Supply measured CC50 of Cc1ccc(-c2nnc3nnc4c5ccccc5[nH]c4n23)cc1 in your reply.
RESULT: ≥ 100 µM

QUERY: Supply measured CC50 of Clc1ccc(-c2nnc3nnc4c5ccccc5[nH]c4n23)cc1 in your reply.
RESULT: > 100 µM

QUERY: Supply measured CC50 of O=[N+]([O-])c1ccc(-c2nnc3nnc4c5ccccc5[nH]c4n23)cc1 in your reply.
RESULT: > 100 µM

QUERY: Supply measured CC50 of COc1ccc(-c2nnc3nnc4c5ccccc5[nH]c4n23)cc1OC in your reply.
RESULT: > 100 µM

QUERY: Supply measured CC50 of Oc1ccc(-c2nnc3nnc4c5ccccc5[nH]c4n23)cc1 in your reply.
RESULT: > 100 µM
